Data origin, for the record: patent US11780840B2

Listed below: IC50 values for each entry.
molecular target: pseudo-kinase domain (JH2, amino-acids 536-812 with 3 surface mutations W659A, W777A, F794H) of human Wild Type JAK2 (Homo sapiens, UniProt O60674, F794H/W659A/W777A); construct: pseudo-kinase domain (JH2, amino-acids 536-812 with 3 surface mutations W659A, W777A, F794H); His (C); Avi (biotinylated) (C); assay: JAK2 LanthaScreen JH2-WT Binding Assay; conditions: JAK2 JH2-WT (0.145 nM), 50 nM Fluorescent JAK2-JH2 Tracer, 1 hour at 25° C.; read-out: JH2 BIND WT
Sequence (O60674 536-812 W659A/W777A/F794H): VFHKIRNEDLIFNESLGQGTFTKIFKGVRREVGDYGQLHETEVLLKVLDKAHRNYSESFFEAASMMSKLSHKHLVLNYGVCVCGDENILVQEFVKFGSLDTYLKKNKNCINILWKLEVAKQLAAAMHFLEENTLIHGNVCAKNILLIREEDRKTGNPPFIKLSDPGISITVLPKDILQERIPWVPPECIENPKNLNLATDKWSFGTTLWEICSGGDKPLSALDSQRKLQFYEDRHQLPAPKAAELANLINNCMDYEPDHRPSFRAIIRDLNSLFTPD

Here is how some compounds turned out for IC50.
[
  {
    "compound": "Cn1c(=O)n(C)c2c3c(-c4ccccc4)c(C4CCNCC4)[nH]c3ncc21",
    "IC50": "> 1000 nM"
  },
  {
    "compound": "Cn1c(=O)n(C2CCOCC2)c2c3c(-c4ccccc4)c(-c4ccc(CN5CCC(S(C)(=O)=O)CC5)cc4)[nH]c3ncc21",
    "IC50": "≤ 10 nM"
  }
]

Which IC50 value is on record for CC(C)n1c(=O)n(C)c2cnc3[nH]c(C4CC4)c(-c4ccc(C#N)cc4)c3c21 ?
10 to 100 nM

Consider next the compound CC(C)n1c(=O)n(C)c2cnc3[nH]c(-c4cnn(CS(C)(=O)=O)c4)c(-c4ccccc4)c3c21 in the same way.
≤ 10 nM
